Test system: SK-MES-1
Experiment: relative viability (nuclei count vs DMSO), 5 days (fraction); higher = more cells survive
Conditions: first compound 0.1265 µM
Kindly state relative viability for each of the entries shown.
Could you respond with only the numeric value?

Exam item: Annotate the compound O=C(O)c1ccc(-c2c[nH]c3ncc(-c4ccccc4)cc23)cc1C1CCCC1 + Nc1nc2[nH]cc(CCc3ccc(C(=O)N[C@@H](CCC(=O)O)C(=O)O)cc3)c2c(=O)[nH]1 [Pemetrexed] (partner 0.2 µM) with its measured relative viability.
Marked response: 1.1

Exam item: Identify the reported relative viability for the following entry. O=C(O)c1ccc(-c2c[nH]c3ncc(-c4ccccc4)cc23)cc1C1CCCC1 + Nc1ncn([C@H]2C[C@H](O)[C@@H](CO)O2)c(=O)n1 [Decitabine] (partner 2 µM)
Marked response: 0.398

Exam item: Query relative viability for O=C(O)c1ccc(-c2c[nH]c3ncc(-c4ccccc4)cc23)cc1C1CCCC1 + COc1cccc2cc(-c3nc([C@H]4CC[C@H](C(=O)O)CC4)n4ncnc(N)c34)[nH]c12 [OSI-027] (partner 0.5 µM)
Marked response: 0.648

Measured values drawn from the supplement of paper PMC10307832 for this set.
